- system: FSHR (Homo sapiens)
- Sequence (P23945 18-695): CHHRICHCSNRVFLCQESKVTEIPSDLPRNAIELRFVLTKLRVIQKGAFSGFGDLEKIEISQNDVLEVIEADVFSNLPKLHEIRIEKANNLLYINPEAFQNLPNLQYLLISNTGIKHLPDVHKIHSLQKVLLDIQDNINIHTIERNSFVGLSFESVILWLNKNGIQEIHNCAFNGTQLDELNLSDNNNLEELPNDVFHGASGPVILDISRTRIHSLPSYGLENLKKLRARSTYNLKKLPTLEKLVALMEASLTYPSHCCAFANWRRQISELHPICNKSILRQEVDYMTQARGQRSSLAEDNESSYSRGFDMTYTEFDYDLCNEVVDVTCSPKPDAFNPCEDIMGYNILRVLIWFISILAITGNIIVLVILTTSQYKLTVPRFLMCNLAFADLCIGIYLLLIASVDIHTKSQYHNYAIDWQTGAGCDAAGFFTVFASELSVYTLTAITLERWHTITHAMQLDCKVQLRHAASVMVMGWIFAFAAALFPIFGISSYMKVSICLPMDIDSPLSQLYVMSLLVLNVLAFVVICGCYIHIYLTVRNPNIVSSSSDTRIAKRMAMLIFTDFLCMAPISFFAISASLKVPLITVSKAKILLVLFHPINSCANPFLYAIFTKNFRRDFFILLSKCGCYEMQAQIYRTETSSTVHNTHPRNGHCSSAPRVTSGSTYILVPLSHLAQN
- test-protocol: EC50 of cyclic AMP production in CHO FSHR cells + EC20 FSH (Assay A)
- run-conditions: CHO-FSHR-LUC cells, 0.265 pM FSH (EC20), cAMP HTRF, 1 h
Response field label: string, one of t (EC50 strictly below 30 µM) or f.

For this compound, is EC50 lower than 30 µM? `CC(C)(C)Oc1ccc(C2=NN(C(=O)c3cccc(F)c3)CC2)cc1`
t

I'd appreciate it if you could check whether `COc1ccc(C2=NN(C(=O)c3ccc(Br)cc3)C(C)(C)C2)cc1OC` has EC50 smaller than 30 µM.
f

Consider the compound `COc1ccc(C2=NN(C(=O)c3cccc(F)c3)CC2(C)C)cc1OC` . Is its EC50 strictly less than 30 µM?
t

# strict comparison: is reported EC50 < 30 µM? input = `COc1ccc(C2=NN(C(=O)c3cccc(Br)c3)CC2)cc1OC`
t

Lab note: confirm whether the reported EC50 for this compound is below 30 µM, equality not counting. compound: `COc1ccc(C2=NN(C(=O)c3cccc(OC(C)(F)F)c3)CC2)cc1OC`
t

----------
- system: follicle-stimulating hormone (FSH) receptor (Rattus norvegicus, UniProt P20395)
- Construct: endogenous in cells
- Sequence (P20395 18-692): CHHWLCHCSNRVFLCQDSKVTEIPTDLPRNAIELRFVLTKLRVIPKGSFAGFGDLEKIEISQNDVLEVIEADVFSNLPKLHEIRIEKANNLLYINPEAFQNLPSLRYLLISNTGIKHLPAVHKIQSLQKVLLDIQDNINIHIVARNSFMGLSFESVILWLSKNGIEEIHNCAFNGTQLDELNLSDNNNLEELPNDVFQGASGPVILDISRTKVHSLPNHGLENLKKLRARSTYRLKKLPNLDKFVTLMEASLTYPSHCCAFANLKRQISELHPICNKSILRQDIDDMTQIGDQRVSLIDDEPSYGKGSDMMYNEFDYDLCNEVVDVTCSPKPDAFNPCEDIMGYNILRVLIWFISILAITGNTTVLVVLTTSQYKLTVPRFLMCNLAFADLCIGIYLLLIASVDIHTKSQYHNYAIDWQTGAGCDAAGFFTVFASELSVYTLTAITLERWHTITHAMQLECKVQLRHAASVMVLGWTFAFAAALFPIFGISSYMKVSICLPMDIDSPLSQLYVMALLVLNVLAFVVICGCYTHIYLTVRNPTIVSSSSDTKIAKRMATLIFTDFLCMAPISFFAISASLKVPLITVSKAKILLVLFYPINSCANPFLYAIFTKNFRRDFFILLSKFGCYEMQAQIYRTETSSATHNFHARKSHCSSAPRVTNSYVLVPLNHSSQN
- test-protocol: Rat granulosa EC50 FSH (Assay B)
- run-conditions: rat granulosa cells, per Yanofsky et al. 2006
Threshold 400 nM. EC50 below it: class 1. EC50 at it or above: class 0.

# count of solved cases: 3
>>> category_label("COc1ccc(C2=NN(C(=O)c3cccc(Oc4ccccc4)c3)C(C)(C)C2)cc1OC")
"class 1"
>>> category_label("COc1ccc(C2=NN(C(=O)c3ccc4c(c3)OCO4)C(C)(C)C2)cc1OC")
"class 0"
>>> category_label("CCc1cccc(C(=O)N2CCC(c3ccc(OC)c(OC)c3)=N2)c1")
"class 0"

Report whether reported EC50 is lower than 400 nM (strictly) for `COc1ccc(C2=NN(C(=O)c3cccc(C)c3)C(C)(C)C2)cc1OC`
class 0

Dear colleague, could you confirm whether EC50 of `COc1ccc(C2=NN(C(=O)c3ccc(F)c(Cl)c3)C(C)(C)C2)cc1OC` falls below 400 nM? Thanks.
class 0

----------
- system: follicle-stimulating hormone (FSH) receptor (Rattus norvegicus, UniProt P20395)
- Construct: endogenous in cells
- test-protocol: Rat granulosa EC50 FSH (Assay B)
- run-conditions: rat granulosa cells, per Yanofsky et al. 2006
recorded-metric: pEC50
Numbers only, as −log10 of the molar value.

>>> value_observed("COc1ccc(C2=NN(C(=O)c3cccc(Oc4ccccc4)c3)CC2)cc1OC [Compound 70]")
6.96
>>> value_observed("COc1ccc(C2=NN(C(=O)c3ccc(F)c(C(F)(F)F)c3)C(C)(C)C2)cc1OC [Compound 236]")
5.76
>>> value_observed("COc1ccc(C2=NN(C(=O)c3ccc4c(c3)OCO4)CC2)cc1OC [Compound 3]")
6.18
>>> value_observed("COc1ccc(C2=NN(C(=O)Cc3cccc(F)c3)CC2)cc1OC [Compound 241]")
6.47
>>> value_observed("COc1ccc(C2=NN(C(=O)c3cccc(C)c3)CC2)cc1OC [Compound 65]")
5.29
>>> value_observed("COc1ccc(C2=NN(C(=O)c3cccc(Br)c3)C(C)(C)C2)cc1OC [Compound 233]")
6.67

Hello, I would appreciate it if you could give pEC50 for each entry below.
1. COc1ccc(C2=NN(C(=O)c3cccc(Br)c3)CC2)cc1OC [Compound 61]
2. COc1ccc(C2=NN(C(=O)c3cccc(F)c3F)CC2)cc1OC [Compound 77]
3. COc1ccc(C2=NN(C(=O)c3ccc(C)c(F)c3)CC2)cc1OC [Compound 136]

1: 6.33; 2: 6.14; 3: 6.97
